system: RAW264.7; test: Antiinflammatory activity in mouse RAW264.7 cells assessed as inhibition of LPS-induced nitric oxide production; assay type: functional, cell-based
Entries and their IC50 values follow.

{"Compound": "CC(=O)N(Cc1ccco1)C(=O)c1ccc(CN2C(=O)c3ccccc3S2(=O)=O)cc1", "IC50 (µM)": 42.6}
{"Compound": "CC(C)(C)OC(=O)N(Cc1ccco1)C(=O)c1ccc(CN2Cc3ccccc3S2(=O)=O)cc1", "IC50 (µM)": 10.6}
{"Compound": "O=C(c1ccc(CN2Cc3ccccc3C2=O)cc1)N1CCCCC1", "IC50 (µM)": 21.9}
{"Compound": "CC(C)(C)OC(=O)N(Cc1ccco1)C(=O)c1ccc(Cn2c(=O)c3ccccc3[s+]2[O-])cc1 (stereo not given)", "IC50 (µM)": 68}
{"Compound": "CC(C)(C)OC(=O)N(Cc1ccco1)C(=O)c1ccc(CN2C(=O)c3ccccc3C2=O)cc1", "IC50 (µM)": 3.45}

Values were extracted from ChEMBL document CHEMBL3351672.
